# TESTED_ON: CDK16 (Homo sapiens, UniProt Q00536, S319D)
# Construct: kinase domain, CDK16 163–478, C-terminal His tag
# Sequence (Q00536 163-478 S319D): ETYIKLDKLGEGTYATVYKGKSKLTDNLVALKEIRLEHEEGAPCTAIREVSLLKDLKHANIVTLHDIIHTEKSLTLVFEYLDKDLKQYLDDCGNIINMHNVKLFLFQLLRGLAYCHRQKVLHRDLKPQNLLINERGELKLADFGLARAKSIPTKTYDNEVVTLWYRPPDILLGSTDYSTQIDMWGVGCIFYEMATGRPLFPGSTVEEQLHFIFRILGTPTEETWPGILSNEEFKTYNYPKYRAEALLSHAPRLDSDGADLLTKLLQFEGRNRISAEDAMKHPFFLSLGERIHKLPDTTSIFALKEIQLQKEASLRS
# PROCEDURE_DETAILS: biochemical
# Parameters: Differential scanning fluorimetry (SYPRO Orange), 2 uM CDK16, Tm shift versus 2.5% DMSO control
# CONDITION_NOTES: read-out: Tm shift (°C)
ENDPOINT_NAME: ΔTm at 12.5 µM (°C)

CN1CCC(C(=O)Nc2n[nH]c3nc(-c4ccc(O)cc4)c(Br)cc23)CC1
5.5
CC(C)(C)c1nc(-c2cccc(NS(=O)(=O)c3c(F)cccc3F)c2F)c(-c2ccnc(N)n2)s1
10.4

[P] Cc1ccc([N+](=O)[O-])cc1S(=O)(=O)N(C)/N=C/c1cnc2ccc(Br)cn12
[Q] CC(C)COC(=O)c1ccc2c(c1)/C(=C/Nc1ccc(S(N)(=O)=O)cc1)C(=O)N2 [GW416981X]
Ask: // compare measured ΔTm at 12.5 µM between P and Q ; output the lower one API: response body contains the label of the selected item.
Reply: P

###

# TESTED_ON: CDK16 (Homo sapiens, UniProt Q00536, S319D)
# Construct: kinase domain, CDK16 163–478, C-terminal His tag
# PROCEDURE_DETAILS: biochemical
# Set-up: Differential scanning fluorimetry (SYPRO Orange), 2 uM CDK16, Tm shift versus 2.5% DMSO control
# CONDITION_NOTES: read-out: Tm shift (°C)
# Experimental: Thermal melting experiments were performed using a Real-Time PCR machine Mx3005p (Stratagene) as described previously. Briefly, 2 μM CDK16 was screened against a collection of kinase inhibitors in a 96-well plate format. […] Data were analysed with the MxPro software. […] To identify protein constructs suitable for structural studies, human CDK16 was recombinantly expressed in E. coli with a variety of N- and C-terminal truncations. […]
ENDPOINT_NAME: ΔTm at 12.5 µM (°C)

O=C1Nc2ccccc2/C1=C1/Nc2ccccc2/C1=N\OCCC(O)CO (stereo not shown) [indirubin E804]
7.6
CC(C)Oc1cc(Nc2nc(N[C@@H](C)c3ccc(F)cn3)ncc2Cl)n[nH]1 [AZ23]
5.8

[I] CNC(=O)c1cc(Oc2ccc(NC(=O)Nc3ccc(Cl)c(C(F)(F)F)c3)c(F)c2)ccn1 [Regorafenib]
[II] Cc1nc(N)sc1-c1ccnc(Nc2cccc([N+](=O)[O-])c2)n1 [Cdk2/9 Inhibitor]
Ask: Which of these two has the smaller recorded ΔTm at 12.5 µM: I or II ? Kindly give the label for the entry you pick.
Reply: I

###

# TESTED_ON: CDK16 (Homo sapiens, UniProt Q00536)
# Sequence (Q00536 whole entry): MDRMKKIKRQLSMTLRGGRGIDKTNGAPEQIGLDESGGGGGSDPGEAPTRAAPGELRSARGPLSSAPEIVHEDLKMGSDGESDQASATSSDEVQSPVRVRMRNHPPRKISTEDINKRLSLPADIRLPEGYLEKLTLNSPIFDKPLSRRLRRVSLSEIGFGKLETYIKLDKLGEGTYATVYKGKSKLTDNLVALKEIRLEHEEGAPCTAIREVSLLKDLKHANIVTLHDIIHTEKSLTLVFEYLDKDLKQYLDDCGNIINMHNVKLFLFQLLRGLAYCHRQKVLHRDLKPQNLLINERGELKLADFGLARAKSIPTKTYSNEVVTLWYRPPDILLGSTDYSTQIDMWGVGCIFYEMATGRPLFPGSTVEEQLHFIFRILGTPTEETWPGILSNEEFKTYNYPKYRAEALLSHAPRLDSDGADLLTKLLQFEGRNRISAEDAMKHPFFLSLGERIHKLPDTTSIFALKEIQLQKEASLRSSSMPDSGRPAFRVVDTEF
# Sequence (Q8ND76 2-341 partner): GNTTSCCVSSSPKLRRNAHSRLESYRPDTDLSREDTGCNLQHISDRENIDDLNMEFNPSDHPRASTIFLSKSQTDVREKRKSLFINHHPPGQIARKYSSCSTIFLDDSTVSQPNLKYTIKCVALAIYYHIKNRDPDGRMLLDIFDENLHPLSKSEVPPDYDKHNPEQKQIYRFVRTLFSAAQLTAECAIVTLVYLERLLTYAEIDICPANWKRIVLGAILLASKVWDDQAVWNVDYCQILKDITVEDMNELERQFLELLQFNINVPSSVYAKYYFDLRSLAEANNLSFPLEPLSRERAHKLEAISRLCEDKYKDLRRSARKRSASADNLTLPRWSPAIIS
# PROCEDURE_DETAILS: […] kinase assay with PCTAIRE-tide; also DSF ΔTm […] °C
# Format: biochemical
# Set-up: E. coli-purified human CDK16 (kinase assay); 163–478 S319D in DSF; with cyclin Y (with endogenous 14-3-3)
ENDPOINT_NAME: IC50 (nM)
Could you give me the number in nM? Just the number is fine.

Ask: // fetch CDK16 (Homo sapiens, UniProt Q00536) IC50 for CC(C)(C)c1nc(-c2cccc(NS(=O)(=O)c3c(F)cccc3F)c2F)c(-c2ccnc(N)n2)s1
Reply: 35

###

# TESTED_ON: CDK16 (Homo sapiens, UniProt Q00536, S319D)
# Construct: kinase domain, CDK16 163–478, C-terminal His tag
# PROCEDURE_DETAILS: biochemical
# Parameters: Differential scanning fluorimetry (SYPRO Orange), 2 uM CDK16, Tm shift versus 2.5% DMSO control
# CONDITION_NOTES: read-out: Tm shift (°C)
ENDPOINT_NAME: ΔTm at 12.5 µM (°C)

Consider the worked cases shown below.
Nc1nc(Nc2ccc(S(N)(=O)=O)cc2)nn1C(=S)Nc1c(F)cccc1F
9.6
NS(=O)(=O)c1ccc(N/N=C2\C(=O)Nc3ccc(C(=O)NCCc4c[nH]cn4)cc32)cc1 [GW300660X]
6.8

[a] NS(=O)(=O)c1ccc(NN=C2C(=O)Nc3ccc(C(=O)NCc4ccncc4)cc32)cc1 [GW300657X]
[b] COc1ccc2c(c1)/C(=C/c1cnc[nH]1)C(=O)N2
Ask: Of the two listed items, a and b , which carries the larger ΔTm at 12.5 µM figure? Label of pick, please.
Reply: a
